Test system: Caco-2 cells
Experimental details: C1-BODIPY-C12 fatty acid uptake (transport) inhibition in Caco-2 cells
Type: cell-based, human
Condition parameters: Homo sapiens; Table 3, structurally related compounds in Caco-2 cells; read-out: IC50
# IC50 values compiled below
Number only, in µM; omit the unit.

COc1cc(/C=C2/SC(=S)N(c3cccc(F)c3)C2=O)cc(Br)c1O
4.7

Proceed to the following item.
Caco-2 cells data for "COc1cc(/C=C2/SC(=S)N(c3cccc(Cl)c3)C2=O)ccc1O" ; its IC50: 121

###

Test system: HepG2 cells
Experimental details: C1-BODIPY-C12 fatty acid uptake inhibition in HepG2 cells
Type: cell-based
Method: This cell line is used as an in vitro model to predict human intestinal absorption and secretion [Hilgers et al., Pharm. […] For growth and differentiation, the BD Biosciences Intestinal Epithelium Differentiation Media Pack was used. […] The number of cells per well in screening trials were determined using the FluoReporter® Blue Fluorometric DNA Quantitation Kit from Invitrogen. […]
# IC50 values compiled below
Write the numeric value and append its unit.

COc1cc(/C=C2/SC(=S)N(c3cccc(Cl)c3)C2=O)cc(Br)c1O
7.55 µM

Entry under test: "O=c1cc(-c2ccc([N+](=O)[O-])cc2)[nH]c2c(-c3ccc(Cl)cc3)c(Cc3ccccc3)nn12" . Its IC50 was 10.2 µM
